# assayText: qHTS drug screen for cell cycle checkpoint inhibitors in PARPi-resistant BRCA-mutant ovarian cancer cell lines. (AID 1963452)
# testSettings: PEO1/OlaR viability, CellTiter-Glo luminescence, 96 h; active compounds read low
resultType: Z-AUC
Lab note: record the figure alone, no unit after it.

Look over these answered cases.
COC(=O)Nc1ccc(-c2nc(N3CCOCC3)c3cnn(C4CCN(C(=O)OC)CC4)c3n2)cc1 :: 0.0604
c1ccc(-c2oc3ncnc(NC[C@@H]4CCCO4)c3c2-c2ccccc2)cc1 :: -1.81
CC(C)(CO)[C@@H](O)C(=O)NCCC(=O)O :: -0.0324
Cc1nc(C(=O)NCC(=O)O)c(O)c2ccc(Oc3ccccc3)cc12 :: 1.39

Give the value of Z-AUC reported for the following: "Cc1ccc(NC(=O)c2ccc(CN3CCN(C)CC3)cc2)cc1Nc1nc(-c2cccnc2)cs1" -0.78
